Source: the kinase profiling compilation of Christmann-Franck et al. (2016)

Molecular target: ROCK2 (human)
Experiment: Caliper, Mobility shift assay off-chip
Settings: compound 0.2 µM
Readout Label: inhibition (%)

These recorded examples may help you get a feel for the data.
{"Smiles Repr": "Cc1ccc(Nc2nccc(N(C)c3ccc4c(C)n(C)nc4c3)n2)cc1S(N)(=O)=O", "Readout Label": "inhibition", "Unit Abbreviation": "%", "Reading": -1.3}
{"Smiles Repr": "CNC(=O)c1cc(Oc2ccc(NC(=O)Nc3ccc(Cl)c(C(F)(F)F)c3)cc2)ccn1", "Readout Label": "inhibition", "Unit Abbreviation": "%", "Reading": 2.8}

(P) COc1cc2c(Oc3ccc4[nH]c(C)cc4c3F)ncnc2cc1OCCCN1CCCC1
(Q) CCN(CC)CCNC(=O)c1c(C)[nH]c(/C=C2\C(=O)Nc3ccc(F)cc32)c1C
### Prompt Which value of inhibition is numerically greater: that of P or that of Q ? Write down the label of the entry you select.
### Response Q

###

Biological target: UniProtKB P33981
Sequence (P33981 whole entry, looked up): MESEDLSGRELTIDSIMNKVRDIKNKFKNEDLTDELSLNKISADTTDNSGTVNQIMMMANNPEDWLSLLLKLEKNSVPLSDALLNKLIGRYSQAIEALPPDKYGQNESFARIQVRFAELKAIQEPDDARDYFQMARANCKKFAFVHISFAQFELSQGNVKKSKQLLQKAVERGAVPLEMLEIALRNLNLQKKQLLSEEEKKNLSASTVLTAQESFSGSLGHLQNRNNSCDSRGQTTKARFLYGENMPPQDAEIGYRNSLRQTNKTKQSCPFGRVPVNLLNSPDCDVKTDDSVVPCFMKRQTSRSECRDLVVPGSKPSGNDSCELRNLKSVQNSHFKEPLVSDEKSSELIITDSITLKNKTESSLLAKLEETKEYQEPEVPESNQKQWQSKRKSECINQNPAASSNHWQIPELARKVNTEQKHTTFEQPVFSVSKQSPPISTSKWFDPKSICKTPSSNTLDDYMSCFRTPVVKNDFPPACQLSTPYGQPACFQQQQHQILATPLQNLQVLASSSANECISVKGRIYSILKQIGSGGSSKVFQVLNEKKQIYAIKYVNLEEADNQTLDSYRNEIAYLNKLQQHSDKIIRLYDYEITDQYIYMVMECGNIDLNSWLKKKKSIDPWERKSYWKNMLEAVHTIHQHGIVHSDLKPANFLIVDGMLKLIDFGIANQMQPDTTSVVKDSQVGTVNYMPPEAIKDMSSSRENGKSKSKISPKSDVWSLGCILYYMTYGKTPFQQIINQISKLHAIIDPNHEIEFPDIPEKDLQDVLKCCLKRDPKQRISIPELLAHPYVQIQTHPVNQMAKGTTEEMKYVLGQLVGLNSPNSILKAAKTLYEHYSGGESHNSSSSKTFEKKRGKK
Assay: ELISA
Settings: compound 0.02 µM
Readout Label: inhibition (%)

{"Smiles Repr": "COc1cc2c(Oc3ccc4[nH]c(C)cc4c3F)ncnc2cc1OCCCN1CCCC1", "Target Or System": "UniProtKB P33981", "Reading": -4}
{"Smiles Repr": "CNC(=O)c1cc(Oc2ccc(NC(=O)Nc3ccc(Cl)c(C(F)(F)F)c3)cc2)ccn1", "Target Or System": "UniProtKB P33981", "Reading": -7.6}

(a) Cc1ccc(Nc2nccc(N(C)c3ccc4c(C)n(C)nc4c3)n2)cc1S(N)(=O)=O
(b) CNC(=O)c1ccccc1Sc1ccc2c(/C=C/c3ccccn3)n[nH]c2c1
### Prompt Endpoint returns whichever of a and b has the numerically higher inhibition. Reply with the label of the item you choose.
### Response b

###

Molecular target: TNK1 (human)
Assay: Caliper, Mobility shift assay off-chip
Details: compound 0.2 µM
Readout Label: inhibition (%)

{"Smiles Repr": "COc1cc2c(Oc3ccc4[nH]c(C)cc4c3F)ncnc2cc1OCCCN1CCCC1", "Target Or System": "TNK1 (human)", "Reading": -1.2}
{"Smiles Repr": "Cc1ccc(Nc2nccc(N(C)c3ccc4c(C)n(C)nc4c3)n2)cc1S(N)(=O)=O", "Target Or System": "TNK1 (human)", "Reading": 12.2}

(A) CNC(=O)c1cc(Oc2ccc(NC(=O)Nc3ccc(Cl)c(C(F)(F)F)c3)cc2)ccn1
(B) CCN(CC)CCNC(=O)c1c(C)[nH]c(/C=C2\C(=O)Nc3ccc(F)cc32)c1C
### Prompt Which numeric inhibition is bigger, that of A or that of B ? Refer to your chosen entry by its label in the reply.
### Response B

###

Target: PRKCI (human) (UniProt P41743)
Sequence (P41743 whole entry, looked up): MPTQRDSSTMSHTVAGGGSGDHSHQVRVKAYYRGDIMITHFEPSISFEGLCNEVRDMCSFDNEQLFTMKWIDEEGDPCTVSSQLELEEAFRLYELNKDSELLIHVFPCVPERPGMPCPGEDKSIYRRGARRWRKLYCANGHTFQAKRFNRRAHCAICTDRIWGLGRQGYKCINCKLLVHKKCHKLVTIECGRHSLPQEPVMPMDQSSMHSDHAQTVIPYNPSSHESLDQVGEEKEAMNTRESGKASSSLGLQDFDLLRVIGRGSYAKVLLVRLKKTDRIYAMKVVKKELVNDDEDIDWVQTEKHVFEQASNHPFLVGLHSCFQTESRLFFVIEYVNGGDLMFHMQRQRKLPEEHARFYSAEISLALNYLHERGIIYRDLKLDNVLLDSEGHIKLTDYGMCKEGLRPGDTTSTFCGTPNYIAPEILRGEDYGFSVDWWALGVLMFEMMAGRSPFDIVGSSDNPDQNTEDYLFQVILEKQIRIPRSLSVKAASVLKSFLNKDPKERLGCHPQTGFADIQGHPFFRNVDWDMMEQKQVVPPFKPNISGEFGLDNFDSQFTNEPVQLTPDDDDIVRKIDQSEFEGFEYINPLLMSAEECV
Experiment: Caliper, Mobility shift assay off-chip
Conditions: compound 0.02 µM
Readout Label: inhibition (%)

{"Smiles Repr": "CNC(=O)c1ccccc1Sc1ccc2c(/C=C/c3ccccn3)n[nH]c2c1", "Unit Abbreviation": "%", "inhibition": 3.9}

(P) Cc1ccc(Nc2nccc(N(C)c3ccc4c(C)n(C)nc4c3)n2)cc1S(N)(=O)=O
(Q) CNC(=O)c1cc(Oc2ccc(NC(=O)Nc3ccc(Cl)c(C(F)(F)F)c3)cc2)ccn1
### Prompt Of P versus Q , which is the one with smaller reported inhibition? In your reply, give the label of the chosen option.
### Response Q

###

Biological target: MAPKAPK5 (human) (UniProt Q8IW41)
Sequence (Q8IW41 whole entry, looked up): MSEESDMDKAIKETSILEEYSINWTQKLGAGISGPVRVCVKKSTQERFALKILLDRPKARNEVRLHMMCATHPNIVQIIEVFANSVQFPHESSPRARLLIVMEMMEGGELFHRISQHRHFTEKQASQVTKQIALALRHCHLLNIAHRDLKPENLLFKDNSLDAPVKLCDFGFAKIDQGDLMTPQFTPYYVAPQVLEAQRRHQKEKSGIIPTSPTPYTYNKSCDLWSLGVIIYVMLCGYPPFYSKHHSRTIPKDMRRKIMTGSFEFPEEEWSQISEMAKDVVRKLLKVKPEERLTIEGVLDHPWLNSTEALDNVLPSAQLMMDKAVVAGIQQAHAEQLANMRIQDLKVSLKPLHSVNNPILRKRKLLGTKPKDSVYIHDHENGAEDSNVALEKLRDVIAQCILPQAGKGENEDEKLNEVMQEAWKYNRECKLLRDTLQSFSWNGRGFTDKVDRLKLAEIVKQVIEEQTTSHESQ
Experiment: Caliper, Mobility shift assay off-chip
Conditions: compound 0.2 µM
Readout Label: inhibition (%)

{"Smiles Repr": "CCN(CC)CCNC(=O)c1c(C)[nH]c(/C=C2\\C(=O)Nc3ccc(F)cc32)c1C", "Reading": 6}

(P) Cc1ccc(Nc2nccc(N(C)c3ccc4c(C)n(C)nc4c3)n2)cc1S(N)(=O)=O
(Q) CNC(=O)c1cc(Oc2ccc(NC(=O)Nc3ccc(Cl)c(C(F)(F)F)c3)cc2)ccn1
(R) COc1cc2c(Oc3ccc4[nH]c(C)cc4c3F)ncnc2cc1OCCCN1CCCC1
### Prompt List the 3 entries from lowest inhibition to highest inhibition value. Sort and list the labels as requested.
### Response R, Q, P
(R: 0.1%, Q: 1.4%, P: 4.8%)

###

Target: MAP3K4 (human)
Test: ELISA
Conditions: compound 0.02 µM
Readout Label: inhibition (%)

(P) Cc1ccc(Nc2nccc(N(C)c3ccc4c(C)n(C)nc4c3)n2)cc1S(N)(=O)=O
(Q) CNC(=O)c1cc(Oc2ccc(NC(=O)Nc3ccc(Cl)c(C(F)(F)F)c3)cc2)ccn1
### Prompt inhibition comparison. Which is larger, P or Q ? Label of pick, please.
### Response Q
(Q: 8.5%, P: -1.5%)

###

Molecular target: UniProt:P27448
Assay: Caliper, Mobility shift assay off-chip
Conditions: compound 0.2 µM
Readout Label: inhibition (%)

(P) CNC(=O)c1cc(Oc2ccc(NC(=O)Nc3ccc(Cl)c(C(F)(F)F)c3)cc2)ccn1
(Q) CCN(CC)CCNC(=O)c1c(C)[nH]c(/C=C2\C(=O)Nc3ccc(F)cc32)c1C
### Prompt Of P and Q , whose reported inhibition is the larger number? Pick one; state its label.
### Response Q
(Q: 77.4%, P: 5.7%)

###

Molecular target: EPHA4 (human)
Assay: Caliper, Mobility shift assay off-chip
Details: compound 0.02 µM
Readout Label: inhibition (%)

{"Smiles Repr": "Cc1ccc(Nc2nccc(N(C)c3ccc4c(C)n(C)nc4c3)n2)cc1S(N)(=O)=O", "Readout Label": "inhibition", "Reading": -4.7}
{"Smiles Repr": "COc1cc2c(Oc3ccc4[nH]c(C)cc4c3F)ncnc2cc1OCCCN1CCCC1", "Readout Label": "inhibition", "Reading": -4.1}

(1) CNC(=O)c1ccccc1Sc1ccc2c(/C=C/c3ccccn3)n[nH]c2c1
(2) CNC(=O)c1cc(Oc2ccc(NC(=O)Nc3ccc(Cl)c(C(F)(F)F)c3)cc2)ccn1
### Prompt Please compare: 1 and 2 . Report which one has the smaller inhibition value. Return value: the label identifying the chosen record.
### Response 1

###

Target: PHKG1 (human) (UniProt Q16816)
Sequence (Q16816 whole entry, looked up): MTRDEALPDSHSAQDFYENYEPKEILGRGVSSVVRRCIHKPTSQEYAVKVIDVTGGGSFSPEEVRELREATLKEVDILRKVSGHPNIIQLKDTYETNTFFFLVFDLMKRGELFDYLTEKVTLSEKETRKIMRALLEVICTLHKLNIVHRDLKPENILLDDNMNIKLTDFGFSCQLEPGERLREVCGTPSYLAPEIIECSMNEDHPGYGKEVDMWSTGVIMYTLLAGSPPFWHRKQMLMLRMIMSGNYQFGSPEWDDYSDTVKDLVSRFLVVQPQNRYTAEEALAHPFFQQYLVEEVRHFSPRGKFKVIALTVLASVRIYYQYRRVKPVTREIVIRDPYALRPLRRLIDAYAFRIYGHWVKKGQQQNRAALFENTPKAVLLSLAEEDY
Test: Caliper, Mobility shift assay off-chip
Conditions: compound 0.02 µM
Readout Label: inhibition (%)

{"Smiles Repr": "CNC(=O)c1ccccc1Sc1ccc2c(/C=C/c3ccccn3)n[nH]c2c1", "Readout Label": "inhibition", "Reading": -4.4}

(I) COc1cc2c(Oc3ccc4[nH]c(C)cc4c3F)ncnc2cc1OCCCN1CCCC1
(II) Cc1ccc(Nc2nccc(N(C)c3ccc4c(C)n(C)nc4c3)n2)cc1S(N)(=O)=O
### Prompt Which item exceeds the other in inhibition, I or II ? State the label of the item chosen.
### Response II

###

Biological target: MAP2K2 (human)
Assay: ELISA
Conditions: compound 0.2 µM
Readout Label: inhibition (%)

{"Smiles Repr": "COc1cc2c(Oc3ccc4[nH]c(C)cc4c3F)ncnc2cc1OCCCN1CCCC1", "Unit Abbreviation": "%", "inhibition": -23}

(a) Cc1ccc(Nc2nccc(N(C)c3ccc4c(C)n(C)nc4c3)n2)cc1S(N)(=O)=O
(b) CCN(CC)CCNC(=O)c1c(C)[nH]c(/C=C2\C(=O)Nc3ccc(F)cc32)c1C
### Prompt Could you point out whether the larger inhibition belongs to a or to b ? Label of pick, please.
### Response b
(b: 70.1%, a: -4%)

###

Target: AURKA (human) (UniProt O14965)
Sequence (O14965 whole entry, looked up): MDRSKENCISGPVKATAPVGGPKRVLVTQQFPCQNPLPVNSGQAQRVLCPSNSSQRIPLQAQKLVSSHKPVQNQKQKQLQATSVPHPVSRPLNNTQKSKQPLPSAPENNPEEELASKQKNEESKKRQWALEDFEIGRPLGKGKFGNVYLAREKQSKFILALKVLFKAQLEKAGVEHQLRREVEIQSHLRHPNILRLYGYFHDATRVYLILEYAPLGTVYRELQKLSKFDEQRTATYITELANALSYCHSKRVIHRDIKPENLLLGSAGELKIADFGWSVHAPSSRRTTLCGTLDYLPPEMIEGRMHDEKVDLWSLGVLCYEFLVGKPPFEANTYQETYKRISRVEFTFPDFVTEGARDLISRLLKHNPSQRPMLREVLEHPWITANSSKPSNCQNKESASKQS
Test: Caliper, Mobility shift assay off-chip
Conditions: compound 0.02 µM
Readout Label: inhibition (%)

Consider the worked cases shown below.
{"Smiles Repr": "Cc1ccc(Nc2nccc(N(C)c3ccc4c(C)n(C)nc4c3)n2)cc1S(N)(=O)=O", "Readout Label": "inhibition", "Reading": 11.5}
{"Smiles Repr": "CNC(=O)c1cc(Oc2ccc(NC(=O)Nc3ccc(Cl)c(C(F)(F)F)c3)cc2)ccn1", "Readout Label": "inhibition", "Reading": -1.5}

(A) CNC(=O)c1ccccc1Sc1ccc2c(/C=C/c3ccccn3)n[nH]c2c1
(B) COc1cc2c(Oc3ccc4[nH]c(C)cc4c3F)ncnc2cc1OCCCN1CCCC1
### Prompt Lower value for measured inhibition? Options: A , B Write down the label attached to your selection.
### Response B
(B: 3.3%, A: 54.5%)

###

Target: CIT (human) (UniProt O14578)
Sequence (O14578 whole entry, looked up): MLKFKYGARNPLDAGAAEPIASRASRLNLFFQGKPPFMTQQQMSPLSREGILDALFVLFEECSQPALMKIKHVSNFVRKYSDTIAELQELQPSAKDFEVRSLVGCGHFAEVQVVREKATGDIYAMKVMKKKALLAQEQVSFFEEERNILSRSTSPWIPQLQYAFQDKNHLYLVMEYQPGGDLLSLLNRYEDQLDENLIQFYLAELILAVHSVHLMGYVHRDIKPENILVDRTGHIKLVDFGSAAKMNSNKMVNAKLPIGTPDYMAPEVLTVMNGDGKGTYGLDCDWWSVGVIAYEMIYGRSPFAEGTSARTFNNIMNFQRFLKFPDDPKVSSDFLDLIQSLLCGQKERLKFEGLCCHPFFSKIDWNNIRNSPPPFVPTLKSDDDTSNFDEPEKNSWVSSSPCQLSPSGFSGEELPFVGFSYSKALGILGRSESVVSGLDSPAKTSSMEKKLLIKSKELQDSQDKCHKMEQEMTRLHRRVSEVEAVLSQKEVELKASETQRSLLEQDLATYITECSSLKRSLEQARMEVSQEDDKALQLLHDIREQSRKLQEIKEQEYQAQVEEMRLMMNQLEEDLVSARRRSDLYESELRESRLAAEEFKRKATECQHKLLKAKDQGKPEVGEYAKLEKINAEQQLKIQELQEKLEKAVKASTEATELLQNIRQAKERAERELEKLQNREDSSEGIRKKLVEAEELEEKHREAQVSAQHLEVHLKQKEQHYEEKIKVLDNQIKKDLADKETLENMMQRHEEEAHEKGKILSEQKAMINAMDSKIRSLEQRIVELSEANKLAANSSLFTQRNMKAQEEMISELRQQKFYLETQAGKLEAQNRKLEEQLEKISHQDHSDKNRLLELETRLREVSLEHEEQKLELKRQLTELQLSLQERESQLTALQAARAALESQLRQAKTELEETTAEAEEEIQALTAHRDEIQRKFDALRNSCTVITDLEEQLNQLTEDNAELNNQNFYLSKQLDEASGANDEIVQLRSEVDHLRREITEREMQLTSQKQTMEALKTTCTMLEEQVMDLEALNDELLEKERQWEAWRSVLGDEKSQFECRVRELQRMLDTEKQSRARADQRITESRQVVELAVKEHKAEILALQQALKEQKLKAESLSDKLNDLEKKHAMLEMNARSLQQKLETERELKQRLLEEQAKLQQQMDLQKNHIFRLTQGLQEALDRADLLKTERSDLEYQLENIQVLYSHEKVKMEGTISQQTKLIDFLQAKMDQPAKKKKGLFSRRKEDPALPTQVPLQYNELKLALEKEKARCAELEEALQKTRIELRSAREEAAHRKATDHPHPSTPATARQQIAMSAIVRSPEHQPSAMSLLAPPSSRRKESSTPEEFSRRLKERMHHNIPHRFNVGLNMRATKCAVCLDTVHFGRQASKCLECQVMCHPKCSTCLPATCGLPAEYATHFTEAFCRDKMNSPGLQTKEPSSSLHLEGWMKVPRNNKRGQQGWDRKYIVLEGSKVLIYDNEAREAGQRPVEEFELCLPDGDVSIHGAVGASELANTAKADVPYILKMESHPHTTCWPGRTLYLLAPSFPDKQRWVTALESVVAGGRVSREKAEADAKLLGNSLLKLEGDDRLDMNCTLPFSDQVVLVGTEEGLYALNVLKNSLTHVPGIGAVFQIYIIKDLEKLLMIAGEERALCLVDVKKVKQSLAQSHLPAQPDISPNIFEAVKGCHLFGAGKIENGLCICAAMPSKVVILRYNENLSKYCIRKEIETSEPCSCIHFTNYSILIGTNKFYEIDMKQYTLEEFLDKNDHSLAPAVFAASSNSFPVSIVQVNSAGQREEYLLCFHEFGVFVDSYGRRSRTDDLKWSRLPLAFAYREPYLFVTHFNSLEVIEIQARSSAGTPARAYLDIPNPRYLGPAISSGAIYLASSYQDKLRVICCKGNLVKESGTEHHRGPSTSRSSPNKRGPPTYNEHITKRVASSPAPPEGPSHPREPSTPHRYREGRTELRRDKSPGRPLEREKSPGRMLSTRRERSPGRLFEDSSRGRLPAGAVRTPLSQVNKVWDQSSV
Assay: Caliper, Mobility shift assay off-chip
Conditions: compound 0.2 µM
Readout Label: inhibition (%)

(A) CNC(=O)c1cc(Oc2ccc(NC(=O)Nc3ccc(Cl)c(C(F)(F)F)c3)cc2)ccn1
(B) COc1cc2c(Oc3ccc4[nH]c(C)cc4c3F)ncnc2cc1OCCCN1CCCC1
(C) Cc1ccc(Nc2nccc(N(C)c3ccc4c(C)n(C)nc4c3)n2)cc1S(N)(=O)=O
(D) CCN(CC)CCNC(=O)c1c(C)[nH]c(/C=C2\C(=O)Nc3ccc(F)cc32)c1C
### Prompt List from greatest to least inhibition. Submit the labels in the order that the ranking request calls for.
### Response D, C, B, A
